targetOrSystem: Bcr/Abl fusion protein (Homo sapiens, UniProt P00519)
Sequence (P00519 whole entry, the tested form may be a part): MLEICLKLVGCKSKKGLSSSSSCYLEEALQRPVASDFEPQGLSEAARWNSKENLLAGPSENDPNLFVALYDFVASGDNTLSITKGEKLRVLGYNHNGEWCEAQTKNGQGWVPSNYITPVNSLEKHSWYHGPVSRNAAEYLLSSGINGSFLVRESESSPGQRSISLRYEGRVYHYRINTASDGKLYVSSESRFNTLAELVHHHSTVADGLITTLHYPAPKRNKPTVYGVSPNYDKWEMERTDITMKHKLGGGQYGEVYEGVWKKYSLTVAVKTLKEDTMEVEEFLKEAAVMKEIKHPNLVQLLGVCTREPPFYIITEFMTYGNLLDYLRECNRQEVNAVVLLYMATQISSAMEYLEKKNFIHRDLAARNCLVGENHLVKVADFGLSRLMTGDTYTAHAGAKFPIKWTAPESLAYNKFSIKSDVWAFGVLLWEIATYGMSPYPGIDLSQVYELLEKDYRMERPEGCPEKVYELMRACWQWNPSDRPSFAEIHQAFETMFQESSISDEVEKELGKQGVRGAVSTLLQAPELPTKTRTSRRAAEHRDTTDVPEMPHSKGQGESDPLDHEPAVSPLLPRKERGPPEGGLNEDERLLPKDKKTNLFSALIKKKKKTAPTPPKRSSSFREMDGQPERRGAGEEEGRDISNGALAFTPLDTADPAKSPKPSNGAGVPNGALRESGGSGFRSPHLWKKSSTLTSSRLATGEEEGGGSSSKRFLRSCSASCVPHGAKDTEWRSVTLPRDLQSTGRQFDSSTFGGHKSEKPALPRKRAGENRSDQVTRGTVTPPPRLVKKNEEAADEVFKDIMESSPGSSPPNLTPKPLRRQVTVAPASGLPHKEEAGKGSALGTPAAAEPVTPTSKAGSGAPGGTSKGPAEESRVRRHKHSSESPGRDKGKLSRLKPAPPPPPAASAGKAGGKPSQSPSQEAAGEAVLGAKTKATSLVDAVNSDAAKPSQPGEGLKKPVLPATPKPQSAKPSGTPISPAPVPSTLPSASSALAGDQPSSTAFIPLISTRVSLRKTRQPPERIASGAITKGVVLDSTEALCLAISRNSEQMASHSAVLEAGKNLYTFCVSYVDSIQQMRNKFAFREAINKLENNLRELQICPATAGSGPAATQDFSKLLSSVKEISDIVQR
Sequence (P11274 whole entry, further chain, the tested form may be a part): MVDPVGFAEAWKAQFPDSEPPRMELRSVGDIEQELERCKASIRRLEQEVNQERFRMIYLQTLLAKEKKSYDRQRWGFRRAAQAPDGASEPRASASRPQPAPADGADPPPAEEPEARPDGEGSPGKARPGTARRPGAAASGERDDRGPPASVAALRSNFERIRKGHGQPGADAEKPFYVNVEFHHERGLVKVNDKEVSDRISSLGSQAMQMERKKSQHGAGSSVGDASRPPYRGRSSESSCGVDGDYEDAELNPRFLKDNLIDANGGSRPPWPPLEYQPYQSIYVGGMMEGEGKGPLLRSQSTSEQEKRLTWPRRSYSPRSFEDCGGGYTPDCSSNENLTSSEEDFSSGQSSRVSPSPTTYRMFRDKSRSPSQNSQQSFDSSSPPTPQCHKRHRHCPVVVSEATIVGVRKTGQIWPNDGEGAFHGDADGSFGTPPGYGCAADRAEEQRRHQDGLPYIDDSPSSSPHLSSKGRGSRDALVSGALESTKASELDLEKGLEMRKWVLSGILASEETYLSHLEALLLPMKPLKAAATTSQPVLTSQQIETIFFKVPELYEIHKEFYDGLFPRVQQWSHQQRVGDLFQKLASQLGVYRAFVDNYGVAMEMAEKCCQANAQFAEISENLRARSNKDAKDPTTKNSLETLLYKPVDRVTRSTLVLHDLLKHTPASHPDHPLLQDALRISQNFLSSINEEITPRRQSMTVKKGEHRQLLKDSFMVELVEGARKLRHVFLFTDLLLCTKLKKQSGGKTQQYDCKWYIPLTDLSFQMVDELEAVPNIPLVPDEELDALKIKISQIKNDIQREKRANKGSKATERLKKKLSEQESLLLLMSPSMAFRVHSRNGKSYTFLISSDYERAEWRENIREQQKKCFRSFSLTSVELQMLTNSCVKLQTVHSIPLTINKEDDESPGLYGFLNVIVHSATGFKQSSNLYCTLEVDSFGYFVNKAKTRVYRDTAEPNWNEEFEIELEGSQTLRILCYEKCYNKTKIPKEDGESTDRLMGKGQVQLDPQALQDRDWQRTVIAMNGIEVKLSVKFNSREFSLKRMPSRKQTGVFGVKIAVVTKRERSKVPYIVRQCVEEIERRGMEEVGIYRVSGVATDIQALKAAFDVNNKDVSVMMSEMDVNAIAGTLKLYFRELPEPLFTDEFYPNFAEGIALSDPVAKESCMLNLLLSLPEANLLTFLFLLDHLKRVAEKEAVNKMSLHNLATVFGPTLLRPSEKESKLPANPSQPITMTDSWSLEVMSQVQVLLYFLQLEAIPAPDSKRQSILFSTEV
assayProtocol: Inhibition of Bcr-Abl (unknown origin) after 60 mins by luminescent kinase assay
metricName: pIC50
Please treat pIC50 as minus the base-10 logarithm of the molar concentration.

Reference set (5 entries):
COc1cccc(C(=O)N2CCN(C(=O)c3ccc(-c4cc(C)ccn4)cc3)CC2)c1: 6.03
O=C(c1ccc(Br)cc1)N1CCN(C(=O)c2ccc(-c3cccs3)cc2)CC1: 7.14
COc1cccc(C(=O)N2CCN(C(=O)c3ccc(-c4cccs4)cc3)CC2)c1: 4.05
COc1cccc(C(=O)N2CCN(C(=O)c3ccc(-c4cccnc4)cc3)CC2)c1: 4.22
O=C(c1ccc(-c2cccs2)cc1)N1CCN(C(=O)c2cccc(F)c2)CC1: 5.30

Request: So what does the record say about pIC50 for `CN(C)c1cccc(C(=O)N2CCN(C(=O)c3ccc(-c4ccccn4)cc3)CC2)c1` ?
Result: 4.34

Request: So what does the record say about pIC50 for `O=C(c1ccc(Br)cc1)N1CCN(C(=O)c2ccc(-c3nccs3)cc2)CC1` ?
Result: 6.38

Request: So what does the record say about pIC50 for `CC(C)(C)c1ccc(C(=O)N2CCN(C(=O)c3ccc(-c4ccccn4)cc3)CC2)cc1` ?
Result: 5.94

Request: So what does the record say about pIC50 for `Cc1ccnc(-c2ccc(C(=O)N3CCN(C(=O)c4cccc(F)c4)CC3)cc2)c1` ?
Result: 4.20

Request: So what does the record say about pIC50 for `Cc1ccnc(-c2ccc(C(=O)N3CCN(C(=O)c4cccc(N(C)C)c4)CC3)cc2)c1` ?
Result: 4.72

Request: So what does the record say about pIC50 for `CN(C)c1cccc(C(=O)N2CCN(C(=O)c3ccc(-c4cccs4)cc3)CC2)c1` ?
Result: 6.49

Request: So what does the record say about pIC50 for `O=C(c1ccc(-c2nccs2)cc1)N1CCN(C(=O)c2cccc(F)c2)CC1` ?
Result: 3.35

Request: So what does the record say about pIC50 for `Cc1ccnc(-c2ccc(C(=O)N3CCN(C(=O)c4cccc(C(F)(F)F)c4)CC3)cc2)c1` ?
Result: 6.95

Request: So what does the record say about pIC50 for `COc1cccc(C(=O)N2CCN(C(=O)c3ccc(-c4nccs4)cc3)CC2)c1` ?
Result: 7.80

Request: So what does the record say about pIC50 for `COc1cccc(C(=O)N2CCN(C(=O)c3ccc(-c4ccccn4)cc3)CC2)c1` ?
Result: 7.18
